Each entry below carries its reported MIC P. aeruginosa GN_043, PmxR.
Tested on: P. aeruginosa GN_043, PmxR
experimentalContext: P. aeruginosa GN_043, PmxR
Description: Bacteria were either obtained from American Type Culture Collection (ATCC; Manassas, Va., USA) or independent academic clinical isolate collections, as listed in Table 18 below. Bacteria were cultured in Nutrient broth (NB; Bacto Laboratories, catalogue No. 234000) or Mueller Hinton broth (MHB; Bacto Laboratories, catalogue No. 211443) at 37° C. overnight with shaking (˜180 RPM). […]
Positions of bridges follow the written chain, without caps; N, C: chain ends. Non-standard residues stand in square brackets, D forms with d. Residues, ends and D or L forms follow the SMILES beside them. *: point of attachment. Decanoyl(3R-OH) = CCCCCCC[C@@H](O)CC(=O)*; X11 = CCCCCCCNc1ccc(C(=O)*)cc1; dOrn = NCCC[C@@H](N)C(=O)O; dDab = NCC[C@@H](N)C(=O)O; dDap = NC[C@@H](N)C(=O)O; Dab = NCC[C@H](N)C(=O)O; Dap = NC[C@H](N)C(=O)O

compound	targetOfAssay	MIC P. aeruginosa GN_043, PmxR
CCCCCCC[C@@H](O)CC(=O)N[C@H](CCN)C(=O)N[C@H]1CCNC(=O)[C@H]([C@@H](C)O)NC(=O)[C@H](CN)NC(=O)[C@H](CCN)NC(=O)[C@H](CC(C)C)NC(=O)[C@@H](Cc2ccccc2)NC(=O)[C@H](CCN)NC1=O [compound 5386] ({Decanoyl(3R-OH)}-[dDab][Dab][Dab][dF]L[Dab][Dap]T; lactam 2-C)	P. aeruginosa GN_043, PmxR	1 µg/mL
CCCCCCC[C@@H](O)CC(=O)N[C@H](CCCN)C(=O)N[C@H]1CCNC(=O)[C@H]([C@@H](C)O)NC(=O)[C@H](CCN)NC(=O)[C@H](CCN)NC(=O)[C@H](CC(C)C)NC(=O)[C@@H](Cc2ccccc2)NC(=O)[C@H](CCN)NC1=O [compound 6396] ({Decanoyl(3R-OH)}-[dOrn][Dab][Dab][dF]L[Dab][Dab]T; lactam 2-C)	P. aeruginosa GN_043, PmxR	16 µg/mL
CCCCCCC[C@@H](O)CC(=O)N[C@H](CCN)C(=O)N[C@H]1CCCCNC(=O)[C@H](CC(C)C)NC(=O)[C@H](CCN)NC(=O)[C@H](CCN)NC(=O)[C@H](CC(C)C)NC(=O)[C@@H](Cc2ccccc2)NC(=O)[C@H](CCN)NC1=O [compound 5382] ({Decanoyl(3R-OH)}-[dDab]K[Dab][dF]L[Dab][Dab]L; lactam 2-C)	P. aeruginosa GN_043, PmxR	2 µg/mL
CCCCCCC[C@@H](O)CC(=O)N[C@H](CCN)C(=O)N[C@H]1CCNC(=O)[C@H](CC(C)C)NC(=O)[C@H](CCN)NC(=O)[C@H](CCN)NC(=O)[C@H](C)NC(=O)[C@@H](Cc2ccccc2)NC(=O)[C@H](CCN)NC1=O [compound 4946] ({Decanoyl(3R-OH)}-[dDab][Dab][Dab][dF]A[Dab][Dab]L; lactam 2-C)	P. aeruginosa GN_043, PmxR	0.5 µg/mL
CCCCCCCNc1ccc(C(=O)N[C@H](CCN)C(=O)N[C@H]2CCNC(=O)[C@H]([C@@H](C)O)NC(=O)[C@H](CCN)NC(=O)[C@H](CCN)NC(=O)[C@H](CC(C)C)NC(=O)[C@@H](Cc3ccccc3)NC(=O)[C@H](CCN)NC2=O)cc1 [compound 6403] (X11-[dDab][Dab][Dab][dF]L[Dab][Dab]T; lactam 2-C)	P. aeruginosa GN_043, PmxR	32 µg/mL
CCCCCCC[C@@H](O)CC(=O)N[C@H](CN)C(=O)N[C@H]1CCNC(=O)[C@H](CC(C)C)NC(=O)[C@H](CCN)NC(=O)[C@H](CCN)NC(=O)[C@H]([C@@H](C)O)NC(=O)[C@@H](Cc2ccccc2)NC(=O)[C@H](CCN)NC1=O [compound 9295] ({Decanoyl(3R-OH)}-[dDap][Dab][Dab][dF]T[Dab][Dab]L; lactam 2-C)	P. aeruginosa GN_043, PmxR	2 µg/mL

###

System: E. coli ATCC 25922
experimentalContext: ATCC 25922
Procedure: Bacteria were either obtained from American Type Culture Collection (ATCC; Manassas, Va., USA) or independent academic clinical isolate collections, as listed in Table 18 below. Bacteria were cultured in Nutrient broth (NB; Bacto Laboratories, catalogue No. 234000) or Mueller Hinton broth (MHB; Bacto Laboratories, catalogue No. 211443) at 37° C. overnight with shaking (˜180 RPM). […]
Positions of bridges follow the written chain, without caps; N, C: chain ends. Non-standard residues stand in square brackets, D forms with d. Residues, ends and D or L forms follow the SMILES beside them. *: point of attachment. Decanoyl(3R-OH) = CCCCCCC[C@@H](O)CC(=O)*; X1 = CCCCCCCN1CCC(C(=O)*)CC1; dDab = NCC[C@@H](N)C(=O)O; Octanoyl = CCCCCCCC(=O)*; Dab = NCC[C@H](N)C(=O)O

compound	qual	MIC E. coli ATCC 25922, µg/mL
CCCCCCCN1CCC(C(=O)N[C@H](CCN)C(=O)N[C@H]2CCNC(=O)[C@H](CC(C)C)NC(=O)[C@H](CCN)NC(=O)[C@H](CCN)NC(=O)[C@H](Cc3ccccc3)NC(=O)[C@@H](CC(C)C)NC(=O)[C@H](CCN)NC2=O)CC1 [compound 6516] (X1-[dDab][Dab][Dab][dL]F[Dab][Dab]L; lactam 2-C)	=	16
CCCCCCC[C@@H](O)CC(=O)N[C@H](CCN)C(=O)N[C@H]1CCNC(=O)[C@H]([C@@H](C)O)NC(=O)[C@H](CCN)NC(=O)[C@H](CCN)NC(=O)[C@H](CC(C)C)NC(=O)[C@@H](Cc2ccccc2)NC(=O)[C@H](CCNC(=O)[C@@H](N)CCCNC(=N)N)NC1=O [compound 6657] ({Decanoyl(3R-OH)}-[dDab][Dab][Dab](Arg)[dF]L[Dab][Dab]T; lactam 2-C)	>	32
CCCCCCCC(=O)N[C@H](CCN)C(=O)N[C@H]1CCNC(=O)[C@H](Cc2c[nH]c3ccccc23)NC(=O)[C@H](CCN)NC(=O)[C@H](CCN)NC(=O)[C@H](CC(C)C)NC(=O)[C@@H](Cc2ccccc2)NC(=O)[C@H](CCN)NC1=O [compound 8901] (Octanoyl-[dDab][Dab][Dab][dF]L[Dab][Dab]W; lactam 2-C)	=	8

###

System: A. baumannii GN_093 PmxR
experimentalContext: GN 093 PmxR
Starred links: 1 amine or outer side, 2 acyl side, 3 side chain; linkers in the order of their positions; H or OH if unused. Positions of bridges follow the written chain, without caps; N, C: chain ends. Non-standard residues stand in square brackets, D forms with d. Residues, ends and D or L forms follow the SMILES beside them. *: point of attachment. X10 = CCCCCCC[C@@H](O)CC(=O)N[C@H](CCN)C(=O)NN(CCN[*:2])C(=O)[*:1]; Decanoyl(3R-OH) = CCCCCCC[C@@H](O)CC(=O)*; azaDab = NCCN(N[*:1])C(=O)[*:2]; dDab = NCC[C@@H](N)C(=O)O; Dab = NCC[C@H](N)C(=O)O
Each entry below carries its reported MIC A. baumannii Cl Ptyela 10073 4512:2, PmxR.
propertyLabel: MIC A. baumannii Cl Ptyela 10073 4512:2, PmxR (µg/mL)

compound	qual	recordedMeasurement
CCCCCCC[C@@H](O)CC(=O)N[C@H](CCN)C(=O)N[C@H]1CCNC(=O)[C@H](CC(C)C)NC(=O)N(CCN)NC(=O)[C@H](CCN)NC(=O)[C@H](CC(C)C)NC(=O)[C@@H](Cc2ccccc2)NC(=O)[C@H](CCN)NC1=O [compound 8782] ({Decanoyl(3R-OH)}-[dDab][Dab][Dab][dF]L[Dab][azaDab]L; lactam 2-C)	>	32
CCCCCCC[C@@H](O)CC(=O)NN(CCN)C(=O)N[C@H]1CCNC(=O)[C@H](CC(C)C)NC(=O)[C@H](CCN)NC(=O)[C@H](CCN)NC(=O)[C@H](CC(C)C)NC(=O)[C@@H](Cc2ccccc2)NC(=O)[C@H](CCN)NC1=O [compound 8639] ({Decanoyl(3R-OH)}-[azaDab][Dab][Dab][dF]L[Dab][Dab]L; lactam 2-C)	=	8
CCCCCCC[C@@H](O)CC(=O)N[C@H](CCN)C(=O)N[C@H]1CCNC(=O)[C@H](CC(C)C)NC(=O)[C@H](CCN)NC(=O)N(CCN)NC(=O)[C@H](CC(C)C)NC(=O)[C@@H](Cc2ccccc2)NC(=O)[C@H](CCN)NC1=O [compound 8641] ({Decanoyl(3R-OH)}-[dDab][Dab][Dab][dF]L[azaDab][Dab]L; lactam 2-C)	=	32
CCCCCCC[C@@H](O)CC(=O)N[C@H](CCN)C(=O)NN1CCNC(=O)[C@H](CC(C)C)NC(=O)[C@H](CCN)NC(=O)[C@H](CCN)NC(=O)[C@H](CC(C)C)NC(=O)[C@@H](Cc2ccccc2)NC(=O)[C@H](CCN)NC1=O [compound 9417] ([Dab][dF]L[Dab][Dab]L; linker N-C via X10)	>	32
CCCCCCC[C@@H](O)CC(=O)N[C@H](CCN)C(=O)N[C@H]1CCNC(=O)N(CC(C)C)NC(=O)[C@H](CCN)NC(=O)[C@H](CCN)NC(=O)[C@H](CC(C)C)NC(=O)[C@@H](Cc2ccccc2)NC(=O)[C@@H](CCN)NC1=O	>	32
